Test target: EGFR (Homo sapiens)
Sequence (P00533 25-1210): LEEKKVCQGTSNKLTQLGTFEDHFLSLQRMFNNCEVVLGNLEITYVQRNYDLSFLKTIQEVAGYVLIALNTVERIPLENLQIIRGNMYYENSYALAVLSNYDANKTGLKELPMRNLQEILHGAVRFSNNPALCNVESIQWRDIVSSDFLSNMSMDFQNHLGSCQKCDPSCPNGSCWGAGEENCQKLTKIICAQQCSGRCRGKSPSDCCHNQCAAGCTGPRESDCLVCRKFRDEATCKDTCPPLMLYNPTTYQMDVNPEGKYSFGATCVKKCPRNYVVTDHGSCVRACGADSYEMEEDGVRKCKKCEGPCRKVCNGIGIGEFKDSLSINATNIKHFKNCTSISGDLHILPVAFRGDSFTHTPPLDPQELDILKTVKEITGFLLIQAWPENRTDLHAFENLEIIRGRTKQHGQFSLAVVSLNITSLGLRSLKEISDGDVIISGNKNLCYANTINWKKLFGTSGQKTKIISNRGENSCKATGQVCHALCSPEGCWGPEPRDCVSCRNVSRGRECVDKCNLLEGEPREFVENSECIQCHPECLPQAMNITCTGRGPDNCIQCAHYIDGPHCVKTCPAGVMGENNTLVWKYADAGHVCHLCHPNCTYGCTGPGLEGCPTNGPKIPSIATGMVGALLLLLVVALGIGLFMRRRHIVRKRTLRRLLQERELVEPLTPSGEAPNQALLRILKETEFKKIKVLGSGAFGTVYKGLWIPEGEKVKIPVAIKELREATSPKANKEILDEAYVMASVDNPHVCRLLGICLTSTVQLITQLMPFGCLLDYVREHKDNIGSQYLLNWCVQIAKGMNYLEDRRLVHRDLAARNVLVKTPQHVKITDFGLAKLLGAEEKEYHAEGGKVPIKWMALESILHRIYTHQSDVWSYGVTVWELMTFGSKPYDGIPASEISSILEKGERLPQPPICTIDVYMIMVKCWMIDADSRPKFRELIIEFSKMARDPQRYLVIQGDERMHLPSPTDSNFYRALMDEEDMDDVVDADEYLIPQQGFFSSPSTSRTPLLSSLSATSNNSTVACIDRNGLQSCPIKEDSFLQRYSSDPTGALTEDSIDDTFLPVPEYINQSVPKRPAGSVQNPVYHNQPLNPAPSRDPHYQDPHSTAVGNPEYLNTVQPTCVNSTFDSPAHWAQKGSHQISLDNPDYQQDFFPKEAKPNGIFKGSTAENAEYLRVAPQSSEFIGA
Assay explanation: In vitro EGFR kinase inhibitory assay (Kinase-Glo luminescence kit)
pIC50: −log10 of the molar value.
// values below are reported pIC50
Value type: pIC50

Compound | Value type | Result number
Fc1ccc(Oc2ncnc3sc4c(c23)CCCCC4)cc1 [Compound 5g] | pIC50 | 6.70
Clc1ccccc1Oc1ncnc2sc3c(c12)CCCCC3 [Compound 5d] | pIC50 | 7.15
Nc1ccc(Oc2ncnc3sc4c(c23)CCCCC4)cc1 [Compound 5b] | pIC50 | 7.38
Clc1ccc(Oc2ncnc3sc4c(c23)CCCCC4)cc1 [Compound 5e] | pIC50 | 7.16
Nc1cccc(Oc2ncnc3sc4c(c23)CCCCC4)c1 [Compound 5a] | pIC50 | 7.15
Cc1cc(Oc2ncnc3sc4c(c23)CCCCC4)ccc1Cl [Compound 5f] | pIC50 | 7.55
O=[N+]([O-])c1ccc(Oc2ncnc3sc4c(c23)CCCCC4)cc1 [Compound 5k] | pIC50 | 6.34

---

Measured melting point by item

Compound | melting point
Nc1cccc(Oc2ncnc3sc4c(c23)CCCCC4)c1 [Compound 5a] | 179 to 180 °C
O=S(=O)(Nc1ncccn1)c1ccc(Nc2ncnc3sc4c(c23)CCCCC4)cc1 [Compound 4b] | 243 to 245 °C
Brc1ccc(Oc2ncnc3sc4c(c23)CCCCC4)cc1 [Compound 5c] | 135 to 136 °C
COc1ccc(Oc2ncnc3sc4c(c23)CCCCC4)cc1 [Compound 5j] | > 300 °C
NS(=O)(=O)c1ccc(Nc2ncnc3sc4c(c23)CCCCC4)cc1 [Compound 4a] | 271 to 272 °C
O=[N+]([O-])c1ccc(Oc2ncnc3sc4c(c23)CCCCC4)cc1 [Compound 5k] | 166 to 169 °C
Clc1ccc(Oc2ncnc3sc4c(c23)CCCCC4)cc1 [Compound 5e] | 115 to 116 °C
Fc1ccc(Oc2ncnc3sc4c(c23)CCCCC4)cc1 [Compound 5g] | > 300 °C
Clc1ccccc1Oc1ncnc2sc3c(c12)CCCCC3 [Compound 5d] | > 300 °C
Nc1ccc(Oc2ncnc3sc4c(c23)CCCCC4)cc1 [Compound 5b] | > 300 °C
Cc1ccc(Oc2ncnc3sc4c(c23)CCCCC4)cc1 [Compound 5i] | > 300 °C
Cc1ccccc1Oc1ncnc2sc3c(c12)CCCCC3 [Compound 5h] | > 300 °C
Cc1ccnc(NS(=O)(=O)c2ccc(Nc3ncnc4sc5c(c34)CCCCC5)cc2)n1 [Compound 4c] | 260 to 262 °C

---

Test target: recombinant human VEGFR-2/KDR (Homo sapiens)
Sequence (P35968 20-1356): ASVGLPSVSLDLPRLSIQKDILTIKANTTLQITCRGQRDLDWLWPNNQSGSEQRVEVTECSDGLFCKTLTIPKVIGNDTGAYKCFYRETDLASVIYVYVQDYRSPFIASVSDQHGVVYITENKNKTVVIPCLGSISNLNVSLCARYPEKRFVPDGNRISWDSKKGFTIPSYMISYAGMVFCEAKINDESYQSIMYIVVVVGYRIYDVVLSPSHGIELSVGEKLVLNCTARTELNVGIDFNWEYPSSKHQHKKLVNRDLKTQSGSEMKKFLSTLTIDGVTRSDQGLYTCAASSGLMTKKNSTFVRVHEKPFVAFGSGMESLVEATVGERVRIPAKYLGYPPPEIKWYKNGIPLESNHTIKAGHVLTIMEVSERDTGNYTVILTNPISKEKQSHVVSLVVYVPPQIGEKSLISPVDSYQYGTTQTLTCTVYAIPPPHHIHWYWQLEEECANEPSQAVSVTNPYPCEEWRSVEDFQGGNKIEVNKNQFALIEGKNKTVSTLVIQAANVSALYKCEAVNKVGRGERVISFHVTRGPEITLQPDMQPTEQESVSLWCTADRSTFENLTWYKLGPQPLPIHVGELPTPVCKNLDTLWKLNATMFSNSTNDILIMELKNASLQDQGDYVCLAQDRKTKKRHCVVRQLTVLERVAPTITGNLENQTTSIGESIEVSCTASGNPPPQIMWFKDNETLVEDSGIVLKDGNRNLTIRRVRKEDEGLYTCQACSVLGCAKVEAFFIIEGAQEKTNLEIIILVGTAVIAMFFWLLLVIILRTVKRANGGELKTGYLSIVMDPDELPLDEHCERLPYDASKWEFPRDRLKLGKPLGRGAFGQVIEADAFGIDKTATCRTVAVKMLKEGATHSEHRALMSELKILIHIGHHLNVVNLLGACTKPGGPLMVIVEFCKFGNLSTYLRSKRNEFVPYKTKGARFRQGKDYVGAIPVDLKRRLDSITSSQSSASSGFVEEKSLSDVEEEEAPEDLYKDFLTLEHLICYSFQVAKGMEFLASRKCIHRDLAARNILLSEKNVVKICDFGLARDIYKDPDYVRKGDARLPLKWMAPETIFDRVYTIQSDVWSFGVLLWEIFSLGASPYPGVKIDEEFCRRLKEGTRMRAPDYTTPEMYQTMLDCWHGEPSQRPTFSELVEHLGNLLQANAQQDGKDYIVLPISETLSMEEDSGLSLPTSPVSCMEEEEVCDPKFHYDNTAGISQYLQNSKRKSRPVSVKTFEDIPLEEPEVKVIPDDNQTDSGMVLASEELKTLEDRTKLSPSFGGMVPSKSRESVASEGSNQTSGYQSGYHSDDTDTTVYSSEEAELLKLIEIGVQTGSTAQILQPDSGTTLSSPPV
Assay explanation: In vitro VEGFR-2 kinase inhibitory assay (ELISA kit)
Cond: mean of three experiments ± SD
pIC50: −log10 of the molar value.

Compound | pIC50
Clc1ccccc1Oc1ncnc2sc3c(c12)CCCCC3 [Compound 5d] | 6.13
Cc1cc(Oc2ncnc3sc4c(c23)CCCCC4)ccc1Cl [Compound 5f] | 5.91
Clc1ccc(Oc2ncnc3sc4c(c23)CCCCC4)cc1 [Compound 5e] | 6.47
Nc1ccc(Oc2ncnc3sc4c(c23)CCCCC4)cc1 [Compound 5b] | 6.29
Nc1cccc(Oc2ncnc3sc4c(c23)CCCCC4)c1 [Compound 5a] | 5.77
